Test system: human non-small cell lung cancer NCI-H1975 cell line
Assay Explanation: SRB proliferation assay, NCI-H1975 cells
Type: cell-based
Details: NCI-H1975, SRB, 72 h, read-out: IC50 NCI-H1975
Can you tell me pIC50 for the items I'm about to list?
Numbers only, as −log10 of the molar value.

Consider the reported pIC50 for these compounds:
# Compound, Experimental System, pIC50
measured = [
    ("C=CC(=O)Nc1cc(Nc2ncc(Cl)c(Nc3ccc4ccccc4c3)n2)c(OC)cc1N1CCC(N(C)C)CC1", "human non-small cell lung cancer NCI-H1975 cell line", 8.40),
    ("C=CC(=O)Nc1cc(Nc2ncc(Cl)c(Nc3ccc4ccccc4c3)n2)c(OC)cc1N1CCC(N(C)C)C1 (stereo not shown)", "human non-small cell lung cancer NCI-H1975 cell line", 6.78),
    ("COc1ccc(NC(=O)/C=C/CN(C)C)cc1Nc1ncc(C(C)C)c(Nc2ccc3ccccc3c2)n1", "human non-small cell lung cancer NCI-H1975 cell line", 6.07),
]

Next compound, pIC50 to be filled in.
Under human non-small cell lung cancer NCI-H1975 cell line: pIC50 value of CC(C)Oc1ccc(NC(=O)/C=C/CN(C)C)cc1Nc1ncc(Cl)c(Nc2ccc3ccccc3c2)n1 ?
5.71

* * *

Tested on: human non-small cell lung cancer NCI-H1975 cell line
Assay Explanation: SRB proliferation assay, NCI-H1975 cells
Assay type: cell-based
Details: NCI-H1975, SRB, 72 h, read-out: IC50 NCI-H1975
Readout Name: pIC50
One number for each entry, as −log10 of the molar value.

Consider the reported pIC50 for these molecules:
# Molecule, pIC50
rows = [
    ("COc1ccc(NC(=O)/C=C/CN(C)C)cc1Nc1ncc(C(F)(F)F)c(Nc2ccc3ccccc3c2)n1", 6.17),
    ("C=CC(=O)Nc1cc(CN(C)C)cc(Nc2ncc(Cl)c(Nc3ccc4ccccc4c3)n2)c1", 7.80),
    ("COc1ccc(NC(=O)/C=C/CN(C)C)cc1Nc1ncc(OC)c(Nc2ccc3ccccc3c2)n1", 5.94),
    ("COc1ccc(NC(=O)/C=C/CN(C)C)cc1Nc1ncc(C)c(Nc2ccc3ccccc3c2)n1", 6.00),
    ("C=CC(=O)Nc1cccc(Nc2nc(Nc3ccc(N4CCN(C(C)=O)CC4)cc3OC)ncc2C(F)(F)F)c1 [CO1686, reference compound]", 6.67),
]

Next molecule, pIC50 to be filled in.
Field request: pIC50 | item: CCOc1ccc(NC(=O)/C=C/CN(C)C)cc1Nc1ncc(Br)c(Nc2ccc3ccccc3c2)n1
5.55

* * *

Experimental System: EGFR^T790M/L858R (Homo sapiens, UniProt P00533, L858R/T790M)
Construct: purchased Millipore
Sequence (P00533 25-1210 T790M/L858R): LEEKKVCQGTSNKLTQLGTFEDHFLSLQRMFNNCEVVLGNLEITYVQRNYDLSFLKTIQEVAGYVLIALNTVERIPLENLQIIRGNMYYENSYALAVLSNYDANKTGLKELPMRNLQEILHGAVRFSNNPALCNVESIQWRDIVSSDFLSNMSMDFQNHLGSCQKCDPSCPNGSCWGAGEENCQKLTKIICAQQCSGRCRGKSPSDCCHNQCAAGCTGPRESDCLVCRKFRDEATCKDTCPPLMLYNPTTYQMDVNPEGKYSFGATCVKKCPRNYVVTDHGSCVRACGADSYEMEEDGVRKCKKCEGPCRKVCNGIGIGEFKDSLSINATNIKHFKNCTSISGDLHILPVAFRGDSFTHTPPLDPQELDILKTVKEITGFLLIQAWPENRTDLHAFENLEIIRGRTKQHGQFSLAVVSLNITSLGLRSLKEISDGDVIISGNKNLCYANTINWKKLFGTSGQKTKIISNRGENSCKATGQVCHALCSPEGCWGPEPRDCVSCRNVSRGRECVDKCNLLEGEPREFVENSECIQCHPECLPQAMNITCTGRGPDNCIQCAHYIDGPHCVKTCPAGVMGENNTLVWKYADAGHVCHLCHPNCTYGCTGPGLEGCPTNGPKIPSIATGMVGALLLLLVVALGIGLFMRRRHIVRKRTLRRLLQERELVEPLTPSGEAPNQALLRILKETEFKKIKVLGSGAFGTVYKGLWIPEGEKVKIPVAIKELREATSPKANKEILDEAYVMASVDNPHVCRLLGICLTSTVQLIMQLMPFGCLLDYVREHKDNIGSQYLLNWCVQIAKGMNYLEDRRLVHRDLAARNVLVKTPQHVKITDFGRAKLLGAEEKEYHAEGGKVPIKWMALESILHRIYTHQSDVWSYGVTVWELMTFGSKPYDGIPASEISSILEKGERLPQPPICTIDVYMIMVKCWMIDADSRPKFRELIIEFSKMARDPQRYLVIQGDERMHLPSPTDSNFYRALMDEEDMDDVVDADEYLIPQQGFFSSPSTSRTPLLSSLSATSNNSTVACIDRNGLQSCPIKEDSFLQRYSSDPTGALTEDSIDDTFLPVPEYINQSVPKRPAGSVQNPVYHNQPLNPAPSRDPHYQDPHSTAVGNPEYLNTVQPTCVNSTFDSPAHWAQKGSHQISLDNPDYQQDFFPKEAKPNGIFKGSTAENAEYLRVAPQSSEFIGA
Assay Explanation: kinase inhibitory activity test (ELISA), EGFR^T790M/L858R
Assay type: biochemical
Details: ELISA, ATP 5 μM, 1 hour at 37° C.
Can you tell me log10 IC50 for the items I'm about to list?
Base-10 log of IC50, unit nM.

# Structure, log10 IC50
measured = [
    ("COc1ccc(NC(=O)/C=C/CN2CCCCC2)cc1Nc1ncc(Cl)c(Nc2ccc3ccccc3c2)n1", 0.28),
    ("C=CC(=O)Nc1cc(Nc2ncc(Cl)c(Nc3ccc4ccccc4c3)n2)c(OC)cc1N1CCC(N(C)C)CC1", 0.11),
    ("C=CC(=O)Nc1cc(Nc2ncc(Cl)c(Nc3ccc4ccccc4c3)n2)c(OC)cc1N1CCOCC1", 0.97),
]

Could you report log10 IC50 for every entry in the following list?
1. CN(C)C/C=C/C(=O)Nc1ccc(F)c(Nc2ncc(Br)c(Nc3ccc4ccccc4c3)n2)c1
2. CCOc1ccc(NC(=O)/C=C/CN(C)C)cc1Nc1ncc(Br)c(Nc2ccc3ccccc3c2)n1
3. C=CC(=O)Nc1cc(Nc2ncc(Cl)c(Nc3ccc4ccccc4c3)n2)c(OC)cc1N1CCCN(C)CC1
4. COc1ccc(NC(=O)/C=C/CN(C)C)cc1Nc1nccc(Nc2ccc3ccccc3c2)n1
5. COc1ccc(NC(=O)/C=C/CN(C)C)cc1Nc1ncc(C(F)(F)F)c(Nc2ccc3ccccc3c2)n1
6. Cc1cc(NC(=O)/C=C/CN(C)C)cc(Nc2ncc(Br)c(Nc3ccc4ccccc4c3)n2)c1
7. COc1cc(F)c(NC(=O)/C=C/CN(C)C)cc1Nc1ncc(Br)c(Nc2ccc3ccccc3c2)n1
8. Cc1ccc(NC(=O)/C=C/CN(C)C)cc1Nc1ncc(Cl)c(Nc2ccc3ccccc3c2)n1

1. 1.51
2. 1.05
3. -0.22
4. 1.75
5. 1.50
6. 1.65
7. 0.88
8. 1.46

Could you report log10 IC50 for every entry in the following list?
1. COc1ccc(NC(=O)/C=C/CN(C)C)cc1Nc1ncc(Cl)c(N(C)c2ccc3ccccc3c2)n1
2. COc1cc(F)c(NC(=O)/C=C/CN(C)C)cc1Nc1ncc(Cl)c(Nc2ccc3ccccc3c2)n1
3. COc1ccc(NC(=O)/C=C/CN2CCN(C(C)=O)CC2)cc1Nc1ncc(Cl)c(Nc2ccc3ccccc3c2)n1
4. COc1ccc(NC(=O)/C=C/CN(C)C)cc1Nc1ncc(Cl)c(Nc2ccc3ccccc3c2)n1
5. CN(C)C/C=C/C(=O)Nc1cccc(Nc2ncc(Cl)c(Nc3ccc4ccccc4c3)n2)c1

1: 1.67; 2: 0.83; 3: 1.28; 4: 1.26; 5: 1.38
